assay context: [M-H]-; instrument: DT; single field, calibrated with ESI Low Concentration Tuning Mix (Agilent)
Record form. Attribute: collision cross section (N2). Fill in for each entry.
// note: answer is a bare numeric in Å²

Query block: // collision cross section (N2) lookup, key: Cc1cn([C@H]2C[C@H](O)[C@@H](CO)O2)c(=O)[nH]c1=O
Result block: 154.1

Query block: // collision cross section (N2) lookup, key: O=c1cccc(O)[nH]1 [2,6-DIHYDROXYPYRIDINE]
Result block: 113.8

Query block: // collision cross section (N2) lookup, key: O=C(O)C(O)Cc1ccc(O)cc1 (stereo not given) [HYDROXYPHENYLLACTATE]
Result block: 141.9

Query block: // collision cross section (N2) lookup, key: O=C(/C=C/c1ccc(O)c(O)c1)O[C@@H](Cc1ccc(O)c(O)c1)C(=O)O [ROSMARINATE]
Result block: 172.7

Query block: // collision cross section (N2) lookup, key: O=c1nc[nH]c2c1ncn2[C@@H]1O[C@H](COP(=O)(O)OP(=O)(O)OP(=O)(O)O)[C@@H](O)[C@H]1O [INOSINE TRIPHOSPHATE]
Result block: 189.2

Query block: // collision cross section (N2) lookup, key: O=P(O)(O)OCC(O)CO (stereo not given) [GLYCEROL 3-PHOSPHATE]
Result block: 127.2

Query block: // collision cross section (N2) lookup, key: O=C1O[C@H]([C@@H](O)CO)C(O)=C1O [ASCORBATE]
Result block: 127.7

Query block: // collision cross section (N2) lookup, key: C[C@H](CCC(=O)O)[C@H]1CC[C@H]2[C@@H]3[C@H](O)C[C@@H]4C[C@H](O)CC[C@]4(C)[C@H]3C[C@H](O)[C@]12C [CHOLATE]
Result block: 203.1

Query block: // collision cross section (N2) lookup, key: C[N+](C)(C)CCOP(=O)([O-])OP(=O)(O)OC[C@H]1O[C@@H](n2ccc(N)nc2=O)[C@H](O)[C@@H]1O
Result block: 205.9

Query block: // collision cross section (N2) lookup, key: NCCOP(=O)(O)O [ETHANOLAMINE PHOSPHATE]
Result block: 123

Query block: // collision cross section (N2) lookup, key: CC(=O)N[C@H]1[C@H](OP(=O)(O)OP(=O)(O)OC[C@H]2O[C@@H](n3ccc(=O)[nH]c3=O)[C@H](O)[C@@H]2O)O[C@H](CO)[C@@H](O)[C@@H]1O [URIDINE DIPHOSPHATE-N-ACETYLGLUCOSAMINE]
Result block: 224

Query block: // collision cross section (N2) lookup, key: CC(=O)NC1C(OP(=O)(O)OP(=O)(O)OCC2OC(n3ccc(=O)[nH]c3=O)C(O)C2O)OC(CO)C(O)C1O (stereo not given) [URIDINE DIPHOSPHATE-N-ACETYLGALACTOSAMINE]
Result block: 223.9

Query block: // collision cross section (N2) lookup, key: NC(=O)[C@@H]1CCCN1C(=O)[C@H](Cc1cnc[nH]1)NC(=O)[C@@H]1CCC(=O)N1
Result block: 184.5

Query block: // collision cross section (N2) lookup, key: O=C(O)/C=C/c1ccc(O)cc1 [4-COUMARATE]
Result block: 131.1

Query block: // collision cross section (N2) lookup, key: CSCC[C@H](NC(C)=O)C(=O)O
Result block: 142.6

Query block: // collision cross section (N2) lookup, key: O=P(O)(O)OC(CO)CO [BETA-GLYCEROPHOSPHATE]
Result block: 126.3

Query block: // collision cross section (N2) lookup, key: O=c1ccn([C@H]2C[C@H](O)[C@@H](COP(=O)(O)OP(=O)(O)OP(=O)(O)O)O2)c(=O)[nH]1 [DEOXYURIDINE TRIPHOSPHATE]
Result block: 178.6

Query block: // collision cross section (N2) lookup, key: O=C(O)/C=C/c1cnc[nH]1 [UROCANATE]
Result block: 120.9

Query block: // collision cross section (N2) lookup, key: Cc1c[nH]c(=O)[nH]c1=O
Result block: 119

Query block: // collision cross section (N2) lookup, key: NCCOP(=O)(O)OP(=O)(O)OC[C@H]1O[C@@H](n2ccc(N)nc2=O)[C@H](O)[C@@H]1O
Result block: 188.2

Query block: // collision cross section (N2) lookup, key: O=c1[nH]c(=O)c2ncn([C@@H]3O[C@H](CO)[C@@H](O)[C@H]3O)c2[nH]1
Result block: 158.3

Query block: // collision cross section (N2) lookup, key: NC(=O)C1=CN([C@@H]2O[C@H](COP(=O)(O)OP(=O)(O)OC[C@H]3O[C@@H](n4cnc5c(N)ncnc54)[C@H](OP(=O)(O)O)[C@@H]3O)[C@@H](O)[C@H]2O)C=CC1
Result block: 246.7

Query block: // collision cross section (N2) lookup, key: O=C(O)C1=CC(=O)[C@@H](O)[C@H](O)C1 [3-DEHYDROSHIKIMATE]
Result block: 132

Query block: // collision cross section (N2) lookup, key: OC[C@H]1O[C@H](OC[C@H]2O[C@H](OC[C@H]3O[C@H](O[C@]4(CO)O[C@H](CO)[C@@H](O)[C@@H]4O)[C@H](O)[C@@H](O)[C@@H]3O)[C@H](O)[C@@H](O)[C@H]2O)[C@H](O)[C@@H](O)[C@H]1O
Result block: 224.1

Query block: // collision cross section (N2) lookup, key: O=C1O[C@H]([C@@H](O)CO)C(=O)C1=O [DEHYDROASCORBATE]
Result block: 127.8

Query block: // collision cross section (N2) lookup, key: Nc1ccccc1O
Result block: 118

Query block: // collision cross section (N2) lookup, key: O=P(O)(O)OC1O[C@H](CO)[C@@H](O)[C@H](O)[C@H]1O (stereo not given in full) [GLUCOSE 1-PHOSPHATE]
Result block: 148.7

Query block: // collision cross section (N2) lookup, key: O=C(O)c1cccnc1C(=O)O [QUINOLINATE]
Result block: 126.6

Query block: // collision cross section (N2) lookup, key: Nc1ncnc2c1ncn2[C@@H]1O[C@H](COP(=O)(O)OP(=O)([O-])OC[C@H]2O[C@@H]([n+]3cccc(C(=O)O)c3)[C@H](O)[C@@H]2O)[C@@H](O)[C@H]1OP(=O)(O)O [NICOTINIC ACID ADENINE DINUCLEOTIDE PHOSPHATE]
Result block: 230.3

Query block: // collision cross section (N2) lookup, key: NCCOP(=O)(O)O [O-PHOSPHOETHANOLAMINE]
Result block: 123.2

Taken from the C3SDB collision cross section collection.
